Target: serotonin reuptake receptors (5HT) / Serotonin uptake sites (transporters) (Rattus norvegicus)
Sequence (P31652 whole entry): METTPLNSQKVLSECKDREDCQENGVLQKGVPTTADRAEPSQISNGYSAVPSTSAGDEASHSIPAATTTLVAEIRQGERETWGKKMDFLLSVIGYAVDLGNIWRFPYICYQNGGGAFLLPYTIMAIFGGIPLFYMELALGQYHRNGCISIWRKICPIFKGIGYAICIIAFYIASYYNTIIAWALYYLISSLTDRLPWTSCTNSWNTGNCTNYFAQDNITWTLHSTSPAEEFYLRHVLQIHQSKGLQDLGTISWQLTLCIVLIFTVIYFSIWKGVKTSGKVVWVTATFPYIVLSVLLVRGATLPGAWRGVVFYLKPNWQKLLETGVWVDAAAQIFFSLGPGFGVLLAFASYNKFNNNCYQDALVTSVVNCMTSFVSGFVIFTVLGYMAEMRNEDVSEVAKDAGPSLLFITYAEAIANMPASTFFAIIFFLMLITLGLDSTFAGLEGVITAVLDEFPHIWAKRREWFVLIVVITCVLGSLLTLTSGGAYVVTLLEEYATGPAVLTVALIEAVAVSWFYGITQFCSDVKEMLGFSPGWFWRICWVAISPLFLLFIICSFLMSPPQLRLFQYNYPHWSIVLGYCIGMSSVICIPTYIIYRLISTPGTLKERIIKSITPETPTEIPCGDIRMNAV
Assay: Affinity for serotonin reuptake sites, [3H]-paroxetine radioligand, rat cerebral cortex
Settings: Rat brain; read-out: K1 values, Serotonin uptake sites (transporters)
measured.quantity: pKi
Friendly reminder that pKi comes from taking -log10 of the concentration in mol/L.

[
  {
    "compound": "Fc1cc(F)cc(O[C@@H](c2ccccc2)C2CCNCC2)c1",
    "pKi": 8.15
  },
  {
    "compound": "O=[N+]([O-])c1ccc(O[C@H](c2ccccc2)C2CCNCC2)cc1",
    "pKi": 9.20
  },
  {
    "compound": "Fc1cc(F)cc(O[C@H](c2ccccc2)C2CCNCC2)c1",
    "pKi": 8.85
  },
  {
    "compound": "FC(F)(F)c1ccc(OC(c2ccccc2)C2CCNCC2)cc1 (stereo not drawn)",
    "pKi": 7.83
  },
  {
    "compound": "O=[N+]([O-])c1ccc(OC(c2ccccc2)C2CCNCC2)cc1 (stereo not drawn)",
    "pKi": 7.82
  }
]

Requested field: pKi. Item: Fc1cccc(O[C@@H](c2cccc(F)c2)C2CCNCC2)c1 8.55

Can you share its pKi? I mean this compound: Fc1ccccc1O[C@H](c1ccccc1)C1CCNCC1 8.38

So what does the record say about pKi for Fc1ccc(O[C@@H](c2ccccc2)C2CCNCC2)cc1 ? 9.35

What pKi value was documented for this compound, N#Cc1cccc(OC(c2ccccc2)C2CCNCC2)c1 (stereo not drawn) ? 8.84
